Origin of measurements: paper PMC4137035

- test_name: Aqueous solubility measured by HPLC
- Assay type: physicochemical
- condition_notes: aqueous medium at pH 2.0 (buffer not named), pH 2
measured_metric: solubility (µg/mL)
Please respond with the number in µg/mL and leave the unit unwritten.

What measured solubility goes with Cc1cc(C#N)cc(C)c1Oc1cc(Nc2ccc(C#N)cc2)c(N)cc1CNC1CC1 [7c] ?
285

###

- System: wild-type HIV-1 (IIIB)
- Format: cell-based
- condition_notes: selective index, CC50 vs EC50 IIIB
Each entry below carries its reported SI.

Answered examples (6):
- compound: "Cc1cc(C#N)cc(C)c1Oc1cc(Nc2ccc(C#N)cc2)c(N)cc1CNC1CC1 [7c]"
  measured_target: "wild-type HIV-1 (IIIB)"
  recorded_value: "1,142"
- compound: "COCc1cc(N)c(Nc2ccc(C#N)cc2)cc1Oc1c(C)cc(CCC#N)cc1C [12a]"
  measured_target: "wild-type HIV-1 (IIIB)"
  recorded_value: ">61,538"
- compound: "Cc1cc(C#N)cc(C)c1Oc1cc(Nc2ccc(C#N)cc2)c(N)cc1CNCCCO [7d]"
  measured_target: "wild-type HIV-1 (IIIB)"
  recorded_value: "2,475"
- compound: "CC(=O)OCc1cc(N)c(Nc2ccc(C#N)cc2)cc1Oc1c(C)cc(/C=C/C#N)cc1C [11b]"
  measured_target: "wild-type HIV-1 (IIIB)"
  recorded_value: "117,439"
- compound: "COCc1cc(N)c(Nc2ccc(C#N)cc2)cc1Oc1c(C)cc(/C=C/C#N)cc1C [11a]"
  measured_target: "wild-type HIV-1 (IIIB)"
  recorded_value: "8,763"
- compound: "CC(=O)OCc1cc(N)c(Nc2ccc(C#N)cc2)cc1Oc1c(C)cc(CCC#N)cc1C [12b]"
  measured_target: "wild-type HIV-1 (IIIB)"
  recorded_value: "46,667"

Proceeding to the next compound to report its SI.
What measured SI goes with Cc1cc(C#N)cc(C)c1Oc1cc(Nc2ccc(C#N)cc2)c(N)cc1CO [7a] ?
114,019
